Molecular target: human σ2 receptor (TMEM97) (Homo sapiens)
Test: [3H]-DTG competition binding, Expi293 membranes
Details: 10 nM [3H]-DTG, 50 mM Tris pH 8.0, 37 °C, 90 min
measure: pKi
Hey, just a heads up that pKi is the negative log base 10 of the concentration in molar.

C1=C(c2c[nH]c3ncccc23)CCN(CCCc2ccccc2)C1 [Z1241145220]: 8.43

Please find the next compound below.
IN: For human σ2 receptor (TMEM97) (Homo sapiens), give pKi of the listed compound: OC(CCc1ccccc1)CN1CC=C(c2c[nH]c3ncccc23)CC1 (centres unmarked) [Z1665845742]
OUT: 8.30

* * *

# maps each entry to its remaining activity at 1 µM
Biological target: human σ2 receptor (TMEM97) (Homo sapiens, UniProt Q5BJF2)
Sequence (Q5BJF2 whole entry): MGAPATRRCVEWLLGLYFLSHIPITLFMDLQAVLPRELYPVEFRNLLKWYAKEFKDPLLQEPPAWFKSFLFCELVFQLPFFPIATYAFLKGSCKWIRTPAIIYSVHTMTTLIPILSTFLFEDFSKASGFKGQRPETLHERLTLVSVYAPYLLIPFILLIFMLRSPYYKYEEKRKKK
Test: biochemical
Assay type: Expi293 membranes
Conditions: read-out: % of control remaining
Provide only the numeric value, understood in %.

Some solved entries appear below for comparison.
C[C@H](N)[C@@H]1CCCCN1C(=O)NCc1cn2ccccc2n1: 127
CC[C@H](NC(=O)C(=O)N(CC)CCCN1CCCC1)[C@@H]1CCCO1: 71.7
O=C1NCCC[C@@H]1N1CC[C@@](O)(c2ccc(F)cc2)C1: 108

IN: Answer with reported remaining activity at 1 µM of `C[C@H](C(=O)NCC1(O)CN(C(=O)Cn2ncnn2)C1)C1CCCC1`
OUT: 104

IN: Retrieve remaining activity at 1 µM measured for `Cc1cccc(C)c1OC[C@H](O)CN1CC[C@@H](CC2CC2)C1` and print it.
OUT: 11.9

* * *

Molecular target: human σ2 receptor (TMEM97) (Homo sapiens, UniProt Q5BJF2)
Assay: biochemical
Format: Expi293 membranes
Conditions: read-out: % of control remaining
measure: remaining activity at 1 µM (%)
Number only, in %; omit the unit.

The following molecules have reported results that may help.
CCc1nc2cc(CN[C@@H](C)CC(=O)N3CCCCCC3)ccc2n1C1CC1: 48.4
N[C@H](Cc1ccccn1)C(=O)NCc1ccccc1C(F)(F)F: 122

IN: // Input: `O[C@@H](COCc1ccccc1F)CN1CC(Cc2ccccc2C(F)(F)F)C1` . Output its remaining activity at 1 µM only.
OUT: 1.1

IN: Indicate its recorded remaining activity at 1 µM; the molecule in question is `CCc1nn(C)c(Cl)c1C(=O)N1CC[C@@H](N2CCNCC2)C1`
OUT: 132

* * *

Biological target: human σ2 receptor (TMEM97) (Homo sapiens, UniProt Q5BJF2)
Assay: biochemical
Format: Expi293 membranes
Settings: read-out: % of control remaining
# strict inequality: remaining activity at 1 µM < 80% yields class 1, everything else yields class 0

IN: I'd appreciate it if you could check whether `Cc1cc(C)nc(C(=O)NCCC2CCN(CCOC(C)C)CC2)c1` has remaining activity at 1 µM smaller than 80%.
OUT: class 1

IN: Does the reported remaining activity at 1 µM of the following compound sit strictly below 80%? `C[C@H](N[C@@H]1CCCc2c1[nH]c1ccccc21)[C@H]1CCCOC1`
OUT: class 1

IN: Is 80% strictly greater than the compound's reported remaining activity at 1 µM? compound: `COc1ccnc(CN2CCC3(CC2)CCN(C(=O)C(C)C)C3)c1`
OUT: class 0

* * *

As shown below, each of these molecules has a reported remaining activity at 1 µM value.
Molecular target: UniProt:Q5BJF2
Assay: biochemical
Assay type: Expi293 membranes
Settings: read-out: % of control remaining
Please give a number only; it is taken to be in %.

CCO[C@@H]1C[C@](CO)(NC[C@H](O)COC2CCOCC2)C1(C)C: 120
C[C@@H](NC(=O)c1cnnn1C)C1CN(C(=O)C23CCCN2CCC3)C1: 126
CC(=O)NCCN1CCC(NC(=O)c2c(Cl)n[nH]c2C)CC1: 98.5

// switching to the query molecule
IN: Specify remaining activity at 1 µM for `CC(C)OCCN1CCC(NC(=O)[C@@H]2CCc3nncn3C2)CC1` and stop.
OUT: 112

* * *

List of remaining activity at 1 µM values.
Target: human σ2 receptor (TMEM97) (Homo sapiens)
Test: biochemical
Format: Expi293 membranes
Details: read-out: % of control remaining
Write the value in % as a bare number.

See these solved cases before continuing.
COCCN1CCC(NC(=O)C(=O)N[C@H]2CCOC(C)(C)C2)CC1: 118
C[C@H](NC(=O)c1ccc2[nH]c(=O)c(=O)[nH]c2c1)[C@H](O)c1ccccc1: 108
O=C(CN1CC2CC1(c1ccccc1)C2)NC[C@@H]1CCCO1: 122
CN1CCC[C@@H]1C(=O)NC[C@H]1CN(CCCC(C)(C)C)CCCO1: 96.4
CC[C@@H](CN1CCCC1)NC(=O)C(=O)NC1COC(C)(C)OC1: 106
CC(C)(C)N1CCC(NC(=O)c2ncccc2Br)CC1: 109

IN: Hello, please tell me recorded remaining activity at 1 µM for this one: `CN(C(=O)c1c[nH]c(=O)cn1)C1CN(C(=O)c2n[nH]c3c2CCC3)C1`
OUT: 96.9

IN: Quick one: give measured remaining activity at 1 µM for `CO[C@@H](CNC(=O)C(=O)N1C[C@@H]2C(=O)N(C)C(=O)[C@@H]2C1)CC(C)C`
OUT: 95.8

* * *

Target: human σ2 receptor (TMEM97) (Homo sapiens)
Assay: [3H]-DTG competition binding, Expi293 membranes
measure: Ki

IN: Give the reported value of Ki for this record: `c1ccc(CCCN2CCC(c3nnc4ccccn34)CC2)cc1`
OUT: > 10 µM

* * *

Biological target: human σ2 receptor (TMEM97) (Homo sapiens)
Assay: biochemical
Format: Expi293 membranes
Conditions: read-out: % of control remaining
remaining activity at 1 µM: recorded values
The answer is to be given in %; state only the numeric part.

Guide cases for remaining activity at 1 µM, answers given:
CCN1CC[C@H](N(CC)C(=O)c2cccc(C(F)(F)F)n2)C1: 126
CNC(=O)NCC(=O)N1CC(O)(CNC(=O)c2ccc(F)s2)C1: 84.5

IN: System human σ2 receptor (TMEM97) (Homo sapiens). Read-out remaining activity at 1 µM. Item `CC(C)(CN1C(=O)N2CCC[C@@H]3C[C@@]32C1=O)N1CCc2ccccc2C1` . Report value.
OUT: 45.5

IN: Give remaining activity at 1 µM for `CN(C(=O)CCn1cnc2c1c(=O)n(C)c(=O)n2C)c1cn[nH]c1` tested on human σ2 receptor (TMEM97) (Homo sapiens).
OUT: 108

IN: Enter remaining activity at 1 µM (test system human σ2 receptor (TMEM97) (Homo sapiens)) for `CN1CCN(CCCCNC(=O)C(=O)N2CCSCC2)CC1`
OUT: 107

* * *

Molecular target: human σ2 receptor (TMEM97) (Homo sapiens, UniProt Q5BJF2)
Assay: biochemical
Type: Expi293 membranes
Details: read-out: % of control remaining
I'd appreciate it if you marked entries true (1) when remaining activity at 1 µM is lower than 70% and false (0) when it is not.

Check out these entries, answers already filled in.
C[C@H](CCN1C(=O)c2ccccc2C1=O)NC[C@@H](O)c1c(F)cccc1F [ZINC000769519341]: false (0)
O[C@@H](CN[C@@H](Cc1ccccc1F)c1ccccc1)CN1CCCC1 [ZINC000429522320]: true (1)
CCn1ncc2c1CCC[C@@H]2N[C@@H](C)Cc1ccccn1 [ZINC000925887162]: true (1)
Clc1ccccc1Cn1cc(CNc2nc3ccccc3[nH]2)cn1 [ZINC000683721842]: false (0)
C[C@@H](O)CN1CC[C@H](C2CCN(C(=O)CN3CCOCC3)CC2)C1 [ZINC001039123057]: false (0)
C[C@H](C(=O)N[C@H]1C[C@H]2CC[C@@H]1N2CCOCC1CC1)c1cccs1 [ZINC001109713565]: true (1)
Cc1cc(CN2CC[C@H]2Cc2ccccc2)ccc1-n1cncn1 [ZINC000353995714]: true (1)
O=C1CCCCN1[C@@H]1CCCN(Cc2cc(-c3ccccc3)no2)C1 [ZINC000370893072]: false (0)

IN: I'd appreciate it if you could check whether COCCOc1ccc(NC(=O)C(=O)N2C[C@H]3CN(C)C[C@H]3C2)cn1 [ZINC000279187431] has remaining activity at 1 µM smaller than 70%.
OUT: false (0)

IN: Does the reported remaining activity at 1 µM of CN1CC[C@@H](C(=O)N2CC[C@@]3(CCN(Cc4nnn(C)n4)C3)C2)C1 [ZINC001041828396] stay below 70%?
OUT: false (0)

IN: Hi there! Is remaining activity at 1 µM for Cc1ccc(N2CCN(C(=O)C(=O)N[C@@H]3CN(C4CC4)C[C@@H]3C)CC2)cc1 [ZINC000809405032] below 70%, do you know?
OUT: false (0)

IN: remaining activity at 1 µM strictly < 70% for this molecule? CC(C)N1CC[C@@H](N(C)S(=O)(=O)c2c(F)c(F)cc(F)c2F)C1 [ZINC000452107481]
OUT: true (1)

IN: In the record for COc1ccc2c(c1)C[C@H](CN1CCCC[C@H]1CCC(=O)OC(C)(C)C)O2 [ZINC001195393353] , is remaining activity at 1 µM less than 70%?
OUT: true (1)

This collection of values is drawn from paper doi:10.1101/2021.04.29.441652v1.
